system: Candida tropicalis; assay: Antifungal activity against Candida tropicalis cgmcc 2.1975 after 48 hrs by broth microdilution method; type: functional; settings: cgmcc 2.1975, 48 h
I'd appreciate it if you could supply MIC95 values for the items below.
Form entry: value (µM) — number only.

query: I have this substance here, "H-RIRIIIRIR-NH2" , and I need its recorded MIC95.
result: 2

query: I have this substance here, "H-RRFRFFFRFRR-NH2" , and I need its recorded MIC95.
result: 1

query: I have this substance here, "H-RLLRRLRRLLR-NH2" , and I need its recorded MIC95.
result: 2

query: I have this substance here, "H-RWRWWWRWR-NH2" , and I need its recorded MIC95.
result: 2

query: I have this substance here, "H-RLRLLLRLR-NH2" , and I need its recorded MIC95.
result: 2

query: I have this substance here, "H-RWWRRWRRWWR-NH2" , and I need its recorded MIC95.
result: 2

query: I have this substance here, "H-RRIRIIIRIRR-NH2" , and I need its recorded MIC95.
result: 1

----------
tested on: Candida albicans; assay: Antifungal activity against Candida albicans isolated from alveolar fluid after 48 hrs by broth microdilution method; assay type: functional
I'd appreciate it if you could supply MIC95 values for the items below.
Form entry: value (µM) — number only.

query: I have this substance here, "H-RFFRRFRRFFR-NH2" , and I need its recorded MIC95.
result: 8

query: I have this substance here, "H-RRWRWWWRWRR-NH2" , and I need its recorded MIC95.
result: 4

query: I have this substance here, "H-RLLRRLRRLLR-NH2" , and I need its recorded MIC95.
result: 8

query: I have this substance here, "H-WWRRWRRWW-NH2" , and I need its recorded MIC95.
result: 8

query: I have this substance here, "H-RRIRIIIRIRR-NH2" , and I need its recorded MIC95.
result: 2

query: I have this substance here, "H-RIIRRIRRIIR-NH2" , and I need its recorded MIC95.
result: 16

query: I have this substance here, "H-RRFRFFFRFRR-NH2" , and I need its recorded MIC95.
result: 4

query: I have this substance here, "H-FFRRFRRFF-NH2" , and I need its recorded MIC95.
result: 16

query: I have this substance here, "H-LLRRLRRLL-NH2" , and I need its recorded MIC95.
result: 64

query: I have this substance here, "H-RLRLLLRLR-NH2" , and I need its recorded MIC95.
result: 8

query: I have this substance here, "H-RWRWWWRWR-NH2" , and I need its recorded MIC95.
result: 8

query: I have this substance here, "H-RWWRRWRRWWR-NH2" , and I need its recorded MIC95.
result: 4

query: I have this substance here, "H-RIRIIIRIR-NH2" , and I need its recorded MIC95.
result: 4

query: I have this substance here, "H-RFRFFFRFR-NH2" , and I need its recorded MIC95.
result: 8

query: I have this substance here, "H-IIRRIRRII-NH2" , and I need its recorded MIC95.
result: 64

query: I have this substance here, "H-RRLRLLLRLRR-NH2" , and I need its recorded MIC95.
result: 4

----------
system: Candida parapsilosis; test: Antifungal activity against Candida parapsilosis cgmcc 2.3989 after 48 hrs by broth microdilution method; format: functional; conditions: Lodderomyces parapsilosis, cgmcc 2.3989, 48 h
ENDPOINT LABEL: MIC95 (µM)
Form entry: value (µM) — number only.

query: Identify the measured MIC95 of "H-WWRRWRRWW-NH2" for Candida parapsilosis.
result: 32

query: Identify the measured MIC95 of "H-RLLRRLRRLLR-NH2" for Candida parapsilosis.
result: 8

query: Identify the measured MIC95 of "H-RRWRWWWRWRR-NH2" for Candida parapsilosis.
result: 8

query: Identify the measured MIC95 of "H-RFRFFFRFR-NH2" for Candida parapsilosis.
result: 16

query: Identify the measured MIC95 of "H-RRFRFFFRFRR-NH2" for Candida parapsilosis.
result: 16

query: Identify the measured MIC95 of "H-RWRWWWRWR-NH2" for Candida parapsilosis.
result: 16

query: Identify the measured MIC95 of "H-RRIRIIIRIRR-NH2" for Candida parapsilosis.
result: 4

query: Identify the measured MIC95 of "H-RWWRRWRRWWR-NH2" for Candida parapsilosis.
result: 16

query: Identify the measured MIC95 of "H-RRLRLLLRLRR-NH2" for Candida parapsilosis.
result: 64

query: Identify the measured MIC95 of "H-RIRIIIRIR-NH2" for Candida parapsilosis.
result: 8
